Can you tell me Population Fragmented Nuclei (%) for the items I'm about to list?
test system: U2OS; assay: Multiplex assay against U2OS; type: toxicity, cell-based; conditions: human, 12 h, 1 µM, compound concentration 1 uM, replicate 1
Answers are plain numbers, in %.

> print(dat)
                                   compound                    measuredmetric  unitssymbol  measvalue
1  Cc1ccc(F)cc1C(=O)Nc1ccc(C(=O)N2Cc3cccn3Cc3ccccc32)c(Cl)c1  Population Fragmented Nuclei (%)            %         32
2      CC(=O)NCCc1c(Cc2ccccc2)[nH]c2ccccc12  Population Fragmented Nuclei (%)            %         25
3  CN1CCN(c2nc3cc(C(F)(F)F)ccc3n3cccc23)CC1.O=C(O)/C=C\C(=O)O.O=C(O)/C=C\C(=O)O  Population Fragmented Nuclei (%)            %         17

Give Population Fragmented Nuclei (%) for each of the items listed below.
1. Cc1ccc(C(C)(O)c2nc3ccccc3s2)c(C)c1 (stereo unspecified)
2. CCCC(CCC)C(=O)O
3. COc1cc(NC(=O)CCN2CCC(OC(=O)Nc3ccccc3-c3ccccc3)CC2)c(Cl)cc1CNC[C@H](O)c1ccc(O)c2[nH]c(=O)ccc12

1. 19
2. 28
3. 29

====

tested on: HEK-293T; test: Multiplex assay against HEK293T; assay type: toxicity, cell-based; conditions: human, 48 h, 1 µM, compound concentration 1 uM, replicate 1
So I've got a bunch of compounds here, and I need their Population Tubulin-Different-Phenotype (%) values.
Answers are plain numbers, in %.

Sample answers from the record:
> print(dat)
                                   compound  measvalue
1  CCCN1CCC[C@@H]2Cc3n[nH]cc3C[C@H]21.Cl [QUINPIROLE HYDROCHLORIDE]         10
2  COc1ccccc1N1CCN(CCCCNC(=O)c2ccc3ccccc3c2)CC1.Cl         20
3  O=S(=O)(c1ccccc1)c1cnc2c(N3CCNCC3)cccc2c1 [INTEPIRDINE]         16
4  Cc1ccc(F)cc1C(=O)Nc1ccc(C(=O)N2Cc3cccn3Cc3ccccc32)c(Cl)c1         17
5  COc1c(C)cc(NC(=O)c2nn(Cc3ccc(F)cc3)c3c2CN(C(=O)c2ccc[nH]2)C[C@]3(C)C(N)=O)cc1C         18

Consider the additional compound presented here.
get_value(item= CN1CCN2c3ncccc3Cc3ccccc3C2C1 (stereo unspecified) , readout=Population Tubulin-Different-Phenotype (%)) returns 13

====

test system: Fibroblast; experiment: Multiplex assay against human fibroblast; format: toxicity, cell-based; conditions: 24 h, 10 µM, compound concentration 10 uM, replicate 1
Could you please report measured Population Membrane Permeable-Phenotype (%) for the items listed next?
Numbers only, in %.

compound	unitsSymbol	measValue
O=C(NCCO)c1cccc(-c2cc(Nc3ccc(OC(F)(F)F)cc3)ncn2)c1	%	1

For each entry beneath this line, provide reported Population Membrane Permeable-Phenotype (%).
1. C[C@@H]1C[C@H]2[C@@H]3CCC4=CC(=O)C=C[C@]4(C)[C@@]3(F)[C@@H](O)C[C@]2(C)[C@@]1(O)C(=O)CO [DEXAMETHASONE]
2. CC(C)(C)c1ccc(S(=O)(=O)Nc2ccc(Cl)cc2C(=O)c2cc[n+]([O-])cc2)cc1 [VERCIRNON]
3. CC1(COc2ccc3c(c2)ncn3-c2ccc3cccc(N4CCC(N)CC4)c3n2)COC1 [CRENOLANIB]
4. CNC[C@H](O)c1ccc(O)c(O)c1 [EPINEPHRINE]
5. CCCn1c(=O)c2[nH]c(C3CCCC3)nc2n(CCC)c1=O
6. Cc1nc2ccc(Oc3ccc(F)cc3)cc2c(=O)n1C[C@H]1CCCN(C(C)C)C1.Cl

1. 1
2. 4
3. 0
4. 0
5. 6
6. 0

Give Population Membrane Permeable-Phenotype (%) for each listed item.
1. Oc1c(CN2CCN(c3ccccn3)CC2)cc(Cl)c2cccnc12
2. O=S(=O)(c1ccccc1)c1cnc2c(N3CCNCC3)cccc2c1 [INTEPIRDINE]
3. CCOc1c2c(c(OCC)c3ncccc13)CN(c1ccc(CS(=O)(=O)NC(=O)Cc3ccccc3OC)cc1C)C2=O
4. CSc1ccccc1N1CCN(CCCCCC(=O)NC2CCCc3ccccc32)CC1.Cl (stereo not drawn)
5. Cc1ccc(C(C)(O)c2nc3ccccc3s2)c(C)c1 (stereo not drawn)

1
0
1
0
3

Reference for the values: ChEMBL document CHEMBL5058577
